Tested on: HEK-293T
EXPERIMENT_SUMMARY: Incucyte cell viability with HEK293T; note: unitless GR value; below 1 slowed growth and below 0 cell loss
Assay type: toxicity, cell-based
COND: human, 12 h, 10 µM, compound concentration 10 uM, replicate number 1
REPORTED_METRIC: Growth Rate

COMPOUND	REPORTED_METRIC	RESULT
CN[C@@H](C)C(=O)N[C@H](C(=O)N1CCC[C@H]1c1nc(C(=O)c2ccc(F)cc2)cs1)C1CCCCC1	Growth Rate	0.4
CCN1CCN(Cc2ccc(NC(=O)c3ccc(C)c(NC(=O)c4cncc(-c5cccs5)c4)c3)cc2C(F)(F)F)CC1	Growth Rate	-0.9
Cl.Cl.N#Cc1ccc(O[C@@H]2c3ccccc3C[C@H]2N2CCC[C@@H](N)C2)c(Cl)c1	Growth Rate	-0.93
OCC1OC(n2cnc3cc(Cl)c(Cl)cc32)C(O)C1O (configuration not stated)	Growth Rate	0.43
Cn1cncc1-c1cn(-c2cccc(C(=O)Nc3cccc(C(F)(F)F)c3)c2)nn1	Growth Rate	-0.13
CSc1ccc(C[C@@H](C)C(=O)O)cc1Nc1nc(N2CC[C@H](N(C)C)C2)cc(C(F)F)c1C#N.O=C(O)C(F)(F)F	Growth Rate	0.39
CO[C@H]1C[C@@H]2CC[C@@H](C)[C@@](O)(O2)C(=O)C(=O)N2CCCC[C@H]2C(=O)O[C@H]([C@H](C)C[C@@H]2CC[C@@H](O)[C@H](OC)C2)CC(=O)[C@H](C)/C=C(\C)[C@@H](O)[C@@H](OC)C(=O)[C@H](C)C[C@H](C)/C=C/C=C/C=C/1C	Growth Rate	-0.06
CCn1c(=O)c2c(C)c(C(=O)N3CCC(O)CC3)sc2n(CCC(F)(F)F)c1=O	Growth Rate	0.79
CCC(=O)N[C@H]1CC[C@@H](C(=O)N(C)c2ccc(-c3nc4ccccc4o3)cc2)C1	Growth Rate	0.1
CCc1nc(C2CCC2)n2nc(-c3ccccc3)[nH]c(=O)c12	Growth Rate	0.44
CCN1CCN(Cc2ccc(Nc3ncc(F)c(-c4cc(F)c5nc(C)n(C(C)C)c5c4)n3)nc2)CC1	Growth Rate	0.31
COc1ccc(OC(=O)N(CC(=O)O)Cc2ccc(OCCc3nc(-c4ccccc4)oc3C)cc2)cc1	Growth Rate	0.94

###

Tested on: HEK-293T
EXPERIMENT_SUMMARY: Incucyte cell viability with HEK293T; note: unitless GR value; below 1 slowed growth and below 0 cell loss
Assay type: toxicity, cell-based
COND: human, 12 h, 10 µM, compound concentration 10 uM, replicate number 1
Parameter threshold = 0.1. Response is T when Growth Rate meets or exceeds it, else F.

> print(dat)
                                   compound  system.name  group.label
1  NC(=O)c1cc2c(-c3ccc(C(=O)NCc4ccnc(Cl)c4)s3)cccc2s1     HEK-293T            F
2  Cc1cc(S(=O)(=O)N2CC(C)(C)c3cc(-c4ccc(C(F)(F)F)cc4)ccc32)ccc1OCC(=O)O     HEK-293T            T
3  NS(=O)(=O)c1cncc(-c2nc(NCc3ccccn3)c3c(-c4ccccc4)cccc3n2)c1 [BMS-919373]     HEK-293T            T
4  CCOC(=O)C1Cc2ccccc2CN1C(=O)c1ccc(SC)s1 (configuration not stated)     HEK-293T            T
5  CC(=O)N(CCN(C)C)c1ccc(N/C(=C2\C(=O)Nc3cc(Cl)ccc32)c2ccccc2)cn1     HEK-293T            F
6  CN1CCN(c2ccc(/C=C(\C#N)c3ccccc3Br)cc2)CC1.Cl.Cl     HEK-293T            T
7  NCC1CCC(CNc2nc(NCc3ccccc3OC(F)(F)F)ncc2[N+](=O)[O-])CC1 (configuration not stated)     HEK-293T            F

###

System: U2OS
EXPERIMENT_SUMMARY: Incucyte cell viability with U2OS; note: unitless GR value; below 1 slowed growth and below 0 cell loss
Format: toxicity, cell-based
COND: human, 24 h, 10 µM, compound concentration 10 uM, replicate number 2
# Growth Rate per record follows

COMPOUND	Growth Rate
CCOC(=O)c1ccc(N2C(=O)C(O)=C(C(=O)c3ccc(OC)cc3)C2c2ccc(F)cc2)cc1 (stereo not drawn)	0.74
Cc1[nH]nc2ccc(-c3cncc(OCC(N)Cc4ccccc4)c3)cc12 (stereo not drawn)	0.28
O=C(Nc1ccc(-n2nc(-c3cccnc3)cc2C(F)(F)F)cn1)c1ccc(-c2ccccc2)c(F)c1	0.97
Nc1ncnc2c1ccn2[C@@H]1O[C@H]([C@@H](O)c2ccccc2)[C@@H](O)[C@H]1O	0.95
Cn1ncc(-c2nc(N[C@H]3CC[C@H](N)CC3)ncc2Cl)c1CC1CC1	0.74
CCOC(=O)C1Cc2ccccc2CN1C(=O)c1ccc(SC)s1 (stereo not drawn)	0.88
CP(C)(=O)c1ccc(CNC(=O)C2CCN(S(=O)(=O)c3cc(Cl)cc(Cl)c3)CC2)cc1	0.89
O=C1NC(NC23CC4CC(CC(C4)C2)C3)=N/C1=C\c1ccc2ncsc2c1	0.52
COc1cc(N(C)c2ccnc3ccc(C(F)(F)F)cc23)cc(OC)c1OC	0.84
O=C(O)CCCCCC[C@@H]1C(=O)NC(=O)N1CCC(O)C1CCCCC1 (stereo partly drawn)	0.92
Br.CO[C@H]1CC=C2CCN3CCC4=C(CC(=O)OC4)[C@]23C1	1
Cc1cc(Nc2ncc(Cl)c(Nc3ccccc3S(=O)(=O)C(C)C)n2)c(OC(C)C)cc1C1CCNCC1	-0.61
COc1ccc(N(C(=O)Nc2c(C)cccc2C)c2cc(Nc3ccc(N4CCN(C)CC4)cc3)ncn2)c(OC)c1	-0.2
Oc1c(CN2CCCC2)cc(COCc2ccccc2)c2cccnc12	0.54
CC(=O)Nc1cccc(-n2c(=O)n(C3CC3)c(=O)c3c(Nc4ccc(I)cc4F)n(C)c(=O)c(C)c32)c1	0.74
COc1ncc(-c2cc(-c3ncc(CN4C[C@@H](C)O[C@@H](C)C4)o3)c3cn[nH]c3c2)cc1NS(C)(=O)=O	0.36
COc1cc2ncnc(Nc3cccc(O)c3)c2cc1OC	0.84
Cc1ccc(-c2cn3nc(C(=O)NC4(c5ccc(F)cc5)CN(C)C4)c(C(C)C)c3c(=O)[nH]2)cc1C	0.61
CC(C)(O)C(=O)N1CCN(c2ccc(C(F)(F)F)c(C3=C(c4c[nH]c5ccccc45)C(=O)NC3=O)c2)CC1	0.83
COc1ccc(S(=O)(=O)N2CCOCC2)cc1Nc1ccc2c(n1)N(C1CCN(C)CC1)[C@H](C)C(=O)N2C	0.72
c1ccc2c(-c3coc4cc(-c5ccc(N6CCNCC6)cc5)cnc34)ccnc2c1	-0.46
CC(C)(c1ccc(O)cc1)c1ccc(O)cc1	0.96
O=C1Nc2ccc(C(=O)c3ccco3)cc2C1=Cc1cc(Cl)c(O)c(Cl)c1 [GW406108X]	0.38
CC(C)(C)c1cnc(CSc2cnc(NC(=O)C3CCN(CC(=O)NCCOCCOCCOCCNc4cccc5c4C(=O)N(C4CCC(=O)NC4=O)C5=O)CC3)s2)o1 (stereo not drawn)	-0.04
Nc1nc(-c2nn(Cc3ccccc3F)c3ncccc23)ncc1C1CC1	0.71
CCN1CCN(Cc2ccc(Nc3ncc(F)c(-c4cc(F)c5nc(C)n(C(C)C)c5c4)n3)nc2)CC1.CS(=O)(=O)O	1
C[C@@H]1CC[C@@]2(OC1)O[C@H]1[C@@H](O)[C@H]3[C@@H]4CC[C@H]5C[C@@H](O[C@@H]6O[C@H](CO)[C@H](O[C@@H]7O[C@H](CO)C(O)[C@H](O[C@@H]8OC[C@@H](O)[C@H](O)[C@H]8O)[C@H]7O[C@@H]7O[C@H](CO)[C@H](O)[C@H](O[C@@H]8O[C@H](CO)[C@@H](O)[C@H](O)[C@H]8O)[C@H]7O)[C@H](O)[C@H]6O)[C@H](O)C[C@]5(C)[C@H]4CC[C@]3(C)[C@H]1[C@@H]2C (stereo partly drawn)	0.6
CCOC(=O)CS(=O)(=O)c1ccc([C@@H](CO)NC(=O)c2cc3c(Cl)c(Cl)c(C)cc3n2C)cc1	0.97

###

Tested on: Fibroblast
EXPERIMENT_SUMMARY: Incucyte cell viability with human fibroblast; note: unitless GR value; below 1 slowed growth and below 0 cell loss
Assay type: toxicity, cell-based
COND: 24 h, 10 µM, compound concentration 10 uM, replicate number 2
# Growth Rate per record follows
REPORTED_METRIC: Growth Rate

> print(dat)
                                   compound  result
1  CC(C)(c1ccc(OCc2cccc(COc3ccc(C(=N)N)cc3)c2)cc1)c1ccc(O[C@@H]2O[C@H](C(=O)O)[C@@H](O)[C@H](O)[C@H]2O)cc1.O=C(O)C(F)(F)F    0.92
2  Cc1ccc(NC(=O)c2ccc3cnccc3c2)cc1C(=O)Nc1cnc(Nc2cccc(NC3CCN(C(=O)/C=C/CN(C)C)CC3)c2)nc1    -0.3
3  Cc1cccc([C@H]2CC[C@@H](N3CCN(c4cccnc4)CC3)CC2)c1.O=C(O)C(F)(F)F.O=C(O)C(F)(F)F    0.94
4  NC(=O)c1ccc(-c2nc(-c3ccc4c(c3)OCCO4)c(-c3ccccn3)[nH]2)cc1    0.74
5  COCc1c(-c2cc3cc(C)cc(OC)c3s2)c2c(N)ncnn2c1CN[C@@H]1CCNC1=O    0.98
6  Cc1nccn1CC1CCc2c(c3ccccc3n2C)C1=O.Cl (configuration not stated)     0.9
7  COc1ncc2cc(C(=O)Nc3cc(C(=O)NCc4cccc(Cl)c4)ccc3Cl)c(=O)[nH]c2n1    0.92
